target: T1, EGFR-Fc fusion protein (recombinant EGFR extracellular region-Fc) (human, UniProt P00533 25-645); assay: BLI ForteBio QKe, biotinylated EGFR-Fc on streptavidin sensor, antibody 20 nM; fold reduction of affinity, parent Ame55 = 1;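 further: parent antibody affinity set as 1, with values giving the fold drop in affinity of each mutant antibody relative to that parent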
T1 construct: extracellular domain; not shown: Fc part supplied by vector pABG1
readout label: Affinity change (fold)
Numbers only, in fold.

Respectfully, I request Affinity change for each entry included below.
1. Ame55 mutant, heavy chain 60A (antibody, V domains shown, Mutant of Ame55) VH: EVQLVQSGAEVKKPGESLKISCKGSGYSFTSYWIGWVRQMPGKGLEWMGIIYPGDSDTRASPSFQGQVTISADKSISTAYLQWSSLKASDTAMYYCARGIIYPSNVAVWGQGTLVTVSS VL: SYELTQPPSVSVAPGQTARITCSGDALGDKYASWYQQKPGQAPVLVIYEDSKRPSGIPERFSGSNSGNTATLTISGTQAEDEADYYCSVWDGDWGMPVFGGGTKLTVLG
2. Ame55 mutant, light chain 88Y (antibody, V domains shown, Mutant of Ame55) VH: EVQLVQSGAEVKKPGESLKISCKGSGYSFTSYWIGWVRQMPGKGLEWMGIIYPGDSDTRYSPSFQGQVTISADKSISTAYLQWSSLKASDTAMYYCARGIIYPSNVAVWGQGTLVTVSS VL: SYELTQPPSVSVAPGQTARITCSGDALGDKYASWYQQKPGQAPVLVIYEDSKRPSGIPERFSGSNSGNTATLTISGTQAEDEADYYCYVWDGDWGMPVFGGGTKLTVLG
3. AmeA2 (Ame55 mutant, light chain 89A(A2)) (antibody, V domains shown, Mutant of Ame55) VH: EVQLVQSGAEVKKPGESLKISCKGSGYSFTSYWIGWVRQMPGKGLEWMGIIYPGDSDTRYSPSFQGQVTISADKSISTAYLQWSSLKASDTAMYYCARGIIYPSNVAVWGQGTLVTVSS VL: SYELTQPPSVSVAPGQTARITCSGDALGDKYASWYQQKPGQAPVLVIYEDSKRPSGIPERFSGSNSGNTATLTISGTQAEDEADYYCSAWDGDWGMPVFGGGTKLTVLG
4. Ame55 mutant, light chain 32V (antibody, V domains shown, Mutant of Ame55) VH: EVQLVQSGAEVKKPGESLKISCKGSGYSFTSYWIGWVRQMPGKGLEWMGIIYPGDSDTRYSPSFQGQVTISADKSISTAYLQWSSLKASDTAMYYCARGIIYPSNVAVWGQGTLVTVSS VL: SYELTQPPSVSVAPGQTARITCSGDALGDKYVSWYQQKPGQAPVLVIYEDSKRPSGIPERFSGSNSGNTATLTISGTQAEDEADYYCSVWDGDWGMPVFGGGTKLTVLG
5. Ame55 mutant, heavy chain 53A (antibody, V domains shown, Mutant of Ame55) VH: EVQLVQSGAEVKKPGESLKISCKGSGYSFTSYWIGWVRQMPGKGLEWMGIIYAGDSDTRYSPSFQGQVTISADKSISTAYLQWSSLKASDTAMYYCARGIIYPSNVAVWGQGTLVTVSS VL: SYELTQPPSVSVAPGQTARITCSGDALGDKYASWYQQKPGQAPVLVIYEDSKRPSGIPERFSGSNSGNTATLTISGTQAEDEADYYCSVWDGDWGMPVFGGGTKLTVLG

Result:
[5, 5, 0.25, 2, 5]
